For each of the molecules below, state its GFP response relative to DMSO.
protocol: LAP4-GFP expression modulators in yeast, confirmation, cell-based, cherry picks, flow cytometry, mother/daughter gates (AID 2271);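 further: ratio of sample to DMSO plate mean so 100% equals DMSO level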
applied conditions: S. cerevisiae LAP4-GFP strain, 3 h, at 10 µM, stronger effect = higher value, 100 means same as DMSO control
One number for each entry, in %.

Field: example entries. Status: answers known.
- molecule: "Cc1cccn2c(=O)c(/C=C(\\C#N)C(=O)NCc3ccco3)c(N3CCC(C(N)=O)CC3)nc12"
  GFP response relative to DMSO, %: 99.8
- molecule: "CC1CN(c2nnnn2-c2ccccc2)CC(C)O1 (stereo unspecified)"
  GFP response relative to DMSO, %: 102
- molecule: "O=C1c2ccsc2SCCN1Cc1ccccc1Cl"
  GFP response relative to DMSO, %: 111
- molecule: "O=C1CC(SCc2nc3ccccc3[nH]2)C(=O)N1c1cccc(F)c1 (stereo unspecified)"
  GFP response relative to DMSO, %: 104
- molecule: "Fc1ccc(/C=N/Nc2nc(-c3cccnc3)nc3ccccc23)cc1"
  GFP response relative to DMSO, %: 107
- molecule: "O=[N+]([O-])/C=C/c1cn(Cc2ccc(F)cc2)c2ccccc12"
  GFP response relative to DMSO, %: 113

Report GFP response relative to DMSO for each item below.
1. O=C1C(Cl)=C(NCCc2ccccc2)C(=O)N1CCc1ccccc1
2. COc1ccc(C2CC(c3cccs3)=NN2S(=O)(=O)c2ccc(C)cc2)cc1 (stereo unspecified)
3. CCOC(=O)c1ccc(N=Cc2nc(-c3ccccc3)oc2OC(C)=O)cc1
4. Cc1nn(Cc2c(Cl)cccc2Cl)c(C)c1NC(=O)c1sc2ccccc2c1Cl
5. CCOC(=O)c1c(C)oc2c1c(C(c1ccncc1)N1CCOCC1)c(O)c1ccccc12 (stereo unspecified)

*A*
1. 106
2. 106
3. 154
4. 95.3
5. 186
